Items are presented alongside their recorded koff.
Biological target: T1, recombinant CD3D&E protein (human CD3-his tag) (human, UniProt P04234 22-105; P07766 23-126, limits assumed)
T1 construct: Analyte in Biacore; also called CD3D&E-His; CD3d&ε-His
T1 sequence (P04234 22-105 limits assumed, chain 1 of 2): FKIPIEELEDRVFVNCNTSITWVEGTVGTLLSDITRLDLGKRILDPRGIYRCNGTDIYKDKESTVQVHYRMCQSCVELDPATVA
T1 sequence (P07766 23-126 limits assumed, chain 2 of 2): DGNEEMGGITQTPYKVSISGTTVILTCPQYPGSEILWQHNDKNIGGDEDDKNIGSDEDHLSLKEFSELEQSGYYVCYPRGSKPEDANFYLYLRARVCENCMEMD
Assay: SPR Biacore, Ab captured on Protein A;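 further: humanized antibodies on a Protein A chip, human CD3-his analyte flowed over in serial dilutions for 3 min, dissociation tracked 120–360 s on a Biacore T200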
quantity-kind: koff (s⁻¹)

# binder, scale-unit, result-number
data = [
    ("Hu192A7B9-8 (antibody, V domains shown, humanized mAb) VH: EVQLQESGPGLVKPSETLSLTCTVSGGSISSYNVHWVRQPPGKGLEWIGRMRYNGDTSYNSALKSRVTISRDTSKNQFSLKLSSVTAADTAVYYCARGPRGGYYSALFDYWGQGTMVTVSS VL: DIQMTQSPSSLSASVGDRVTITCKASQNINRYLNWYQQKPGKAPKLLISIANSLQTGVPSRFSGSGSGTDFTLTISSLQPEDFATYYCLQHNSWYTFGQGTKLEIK", "s⁻¹", 0.0475),
    ("Hu155A9B1-13 (antibody, V domains shown, humanized mAb) VH: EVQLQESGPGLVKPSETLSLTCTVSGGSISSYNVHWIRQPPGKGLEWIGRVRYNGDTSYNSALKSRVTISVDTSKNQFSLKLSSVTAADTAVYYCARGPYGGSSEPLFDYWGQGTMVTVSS VL: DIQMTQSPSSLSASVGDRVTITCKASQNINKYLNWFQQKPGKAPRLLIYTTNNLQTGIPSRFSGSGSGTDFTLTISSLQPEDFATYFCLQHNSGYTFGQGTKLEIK", "s⁻¹", 0.00354),
    ("Hu192A7B9-12 (antibody, V domains shown, humanized mAb) VH: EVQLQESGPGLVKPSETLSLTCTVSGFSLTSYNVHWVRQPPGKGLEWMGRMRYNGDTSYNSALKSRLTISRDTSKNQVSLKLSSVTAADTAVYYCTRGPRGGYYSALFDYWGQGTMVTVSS VL: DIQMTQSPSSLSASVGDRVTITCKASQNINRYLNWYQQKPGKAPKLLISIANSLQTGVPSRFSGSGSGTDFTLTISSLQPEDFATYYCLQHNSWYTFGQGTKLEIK", "s⁻¹", 0.00317),
    ("Hu153A6B1-13 (antibody, V domains shown, humanized mAb) VH: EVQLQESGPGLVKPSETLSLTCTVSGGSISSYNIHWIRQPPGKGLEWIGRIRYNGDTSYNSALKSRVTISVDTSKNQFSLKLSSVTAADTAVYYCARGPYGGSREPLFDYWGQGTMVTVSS VL: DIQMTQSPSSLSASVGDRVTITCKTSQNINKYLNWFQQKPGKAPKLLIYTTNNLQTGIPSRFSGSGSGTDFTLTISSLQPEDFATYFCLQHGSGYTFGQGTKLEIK", "s⁻¹", 0.0103),
]
